Task for the reader: assign each of the following binders its reported % Inhibition.
target: MICB*005 on HCC1534 cells (human); assay: cell-based or functional assay; further: test concentration or dose not given here
Give bare numbers, in %.

Study these solved cases before continuing.
binder	% Inhibition [%]
1D5v10 (antibody, IgG1, V domains shown, humanized variant of 1D5) VH: EVQLVQSGAEVKKPGASVKVSCKASGYAFTSQNIYWVRQAPGQGLEWMGYIEPYNVVPMYNPKFKGRVTMTTDTSTSTAYMELRSLRSDDTAVYYCARSGSSNFDYWGQGTLVTVSS VL: DIQLTQSPSSLSASVGDRVTITCSASSSISSHYLHWYQQKPGKSPKLLIYRTSNLASGVPSRFSGSGSGTDYTLTISSLQPEDFATYYCQQGSSLPLTFGQGTKVEIK	43
15F11 (antibody, V domains shown, mouse variable domains) VH: EIQLQQSGPELVKPGASVRVSCKPSGYAFTSNNIYWVKQSRRKSLEWIGYIDPYIGRIIYNQQFKDKATLTVDKSSSTAYMHLNSLTSEDSAVYYCSRSGERSNFDYWGQGTTLTVSS VL: EIVLTQSPTAMAASPGEKITITCSASSSISSNYLHWYQQKPGFSPKLLIYRTSNLASGVPARFSGSGSGTSYSLTIGPMEAEDVATYYCQQGGSLPLTFGAGTKVEIK	43

We now examine a further binder.
# input I would be grateful if you could share the reported % Inhibition for 15F11v6 (antibody, IgG1, V domains shown, humanized variant of 15F11) VH: EIQLVQSGAEVKKPGSSVKVSCKPSGYAFTSNNIYWVRQAPGQGLEWIGYIDPYIGRIIYNQQFKDRATLTVDKSTSTAYMELSSLRSEDTAVYYCSRSGERSNFDYWGQGTLVTVSS VL: EIVLTQSPATLSLSPGERATLSCSASSSISSNYLHWYQQKPGQSPRLLIYRTSNLASGVPARFSGSGSGTDYTLTISSLEPEDFAVYYCQQGGSLPLTFGQGTKVEIK .
# output 59
